# credit: the OPERA property sets (Mansouri et al. 2018)

Listed here are compounds together with their documented boiling point.
Kindly answer with a numeric value in °C, unit omitted.

Answered examples (3):
compound | quantitative readout
FC(F)(F)C(F)(F)C(F)(F)N(C(F)(F)C(F)(F)C(F)(F)F)C(F)(F)C(F)(F)C(F)(F)F | 130
C[Se]C | 55
CC(O)CCCCO (stereo not drawn) | 237

*Q* Sample `C/C=C/CO` — what was its boiling point?
*A* 121

*Q* Sample `CCCCCCCCCCCCBr` — what was its boiling point?
*A* 276

*Q* Sample `CNc1ccccc1` — what was its boiling point?
*A* 196

*Q* Sample CCOC(=O)C(C)[N+](=O)[O-] (stereo not drawn) — what was its boiling point?
*A* 190

*Q* Sample `Cc1cc(O)c(C(C)(C)C)cc1C(C)(C)C` — what was its boiling point?
*A* 282
